Some compounds, each annotated with its measured Morningglory plant response rating.
Test system: morningglory (Ipomoea spp.)
Procedure Text: Test A pre-/postemergence: morningglory
Type: in vivo
Test Context: Postemergence, 125 g ai/ha; 0 to 100 scale, 0 is no effect, 100 is complete control
Observation Type: Morningglory plant response rating

> print(dat)
                                    compound  test.result
 1  Cc1nn(-c2ccc(C(F)(F)F)cc2)nc1Oc1cncc(C(F)(F)F)c1 [Compound 37]           20
 2  Cc1cnccc1Oc1nn(-c2ccc(F)cc2)nc1C [Compound 87]            0
 3  FC(F)(F)c1ccc(-n2nc(Cl)c(Cc3ccnc(C(F)(F)F)c3)n2)cc1 [Compound 28]          100
 4  COc1nn(-c2ccc(C(F)(F)F)cc2)nc1C(F)c1ccnc(C(F)(F)F)c1 (centres unmarked) [Compound 80]           40
 5  Cc1nn(-c2ccc(C(F)(F)F)cc2)nc1Oc1cccc(C(F)(F)F)c1 [Compound 111]           70
 6  Cc1nn(-c2ccc(Cl)nc2)nc1C(=O)c1cccc(C(F)(F)F)c1 [Compound 72]            0
 7  Cc1nn(-c2ccc(F)cc2)nc1Oc1cccc(C(F)(F)F)n1 [Compound 127]           20
 8  COc1nn(-c2ccc(C(F)(F)F)cc2)nc1C(C)(O)c1ccnc(C(F)(F)F)c1 (centres unmarked) [Compound 79]            0
 9  Cc1nn(-c2nc(Cl)ns2)nc1C(=O)c1cccc(C(F)(F)F)c1 [Compound 59]            0
10  Cc1nn(-c2ccnc(C(F)(F)F)c2)nc1C(=O)c1cccc(C(F)(F)F)c1 [Compound 49]           20
11  Cc1nn(-c2ccc(F)cc2)nc1Oc1cc(C(F)(F)F)nn1C [Compound 126]           70
